- Tested on: IGROV1 ovarian
- method_description: NCI tumour cell line growth inhibition, 48 h
observation_type: TGI

compound: Cc1cc(OCc2nnc3n2N=C(c2ccc(Cl)cc2Cl)CS3)ccc1Cl
TGI: > 100 µM

compound: CC(C)(C)S(=O)OC12CC3CC(CC(C3)C1)C2 (stereo unspecified)
TGI: > 100 µM

compound: Cc1cc2c(cc1N)C(C)C1(CCC(=O)N2Cc2ccccc2)OCCO1 (stereo unspecified)
TGI: > 100 µM

compound: O=C(NS(=O)(=O)c1ccccc1)C(Cc1ccccc1)C(Cc1ccccc1)C(=O)NS(=O)(=O)c1ccccc1 (stereo unspecified)
TGI: > 100 µM

compound: CC(C)C(NCc1c(O)ccc2c(-c3ccccc3)cc(=O)oc12)C(=O)O (stereo unspecified)
TGI: > 100 µM

// each listed compound needs a value for TGI
1. S=c1[nH]nc(NNc2ccccc2)n1Nc1ccccc1
2. Cn1c2ccccc2c(=O)c2[nH]c3ccccc3c21
3. Nc1ccc([C@H]2C(=O)N[C@H]3CCC[C@H]32)cc1

1. > 100 µM
2. > 100 µM
3. > 100 µM

// each listed compound needs a value for TGI
1. CC1(C)[C@H]2Cc3cc(-c4cc5c(cn4)[C@@H]4C[C@H]([C@@H]5[C@@H]5c6cc(-c7cc8c(cn7)[C@@H]7C[C@H](C8)C7(C)C)ncc6[C@@H]6C[C@H]5C6(C)C)C4(C)C)ncc3[C@@H]1C2
2. COC(=O)c1c(-c2ccccc2)c2sc3ccccc3n2c1N
3. CC(=O)ON(C(C)=O)c1ccc(-c2nc3ccccc3s2)cc1C
4. Cc1ccc2c(=O)cc(-c3sc4ccccc4c3C)[nH]c2n1

1: > 100 µM; 2: > 100 µM; 3: > 100 µM; 4: 45.7 µM

// each listed compound needs a value for TGI
1. Cc1ccccc1N=NC(C(=O)c1ccccc1)C(=O)c1ccccc1
2. O=C1OC(CN2CCOCC2)CN1/N=C/c1ccc([N+](=O)[O-])o1 (stereo unspecified)

> 100 µM
84.8 µM

---

- Tested on: RPMI-8226 leukemia
- method_description: NCI tumour cell line growth inhibition, 48 h
For each entry below, report its TGI value.

Worked cases, answers included:
compound: CCC(=O)N/N=C(\C=C\c1cccc(O)c1)c1sc(Nc2ccc(C)cc2[N+](=O)[O-])nc1C
value_measured: > 100 µM

compound: C/C(=N\NC(=S)NCc1ccccc1)c1nc2ncccc2[nH]1
value_measured: 59.9 µM

compound: COC(=O)C1=C(c2ccc3c(c2)OCO3)OC(c2cc(OC)c(OC)c(OC)c2)C1 (centres undefined)
value_measured: > 100 µM

compound: Nn1c(N=Nc2c(O)[nH]c3c(Cl)cc(Cl)cc23)n[nH]c1=S
value_measured: > 100 µM

compound: Nc1ccc([C@H]2C(=O)N[C@H]3CCC[C@H]32)cc1
value_measured: > 100 µM

// each listed compound needs a value for TGI
1. S=C1N=C(Cl)/C(=C\c2ccccc2)N1
2. COC1OC2COC(c3ccccc3)OC2C(O)C1Br (centres undefined)
3. COc1ccc(-c2nn(-c3cccc(NC(=O)c4ccc(N5CCOCC5)c(C(F)(F)F)c4)c3)cc2-c2ccncc2)cc1Cl

1. > 100 µM
2. > 100 µM
3. > 50 µM

---

- Test system: HOP-62 NSCLC
- method_description: NCI tumour cell line growth inhibition, 48 h
For each entry below, report its TGI value.

molecule: COc1ccc(C2=CC(c3ccc(OC)c(OC)c3)c3c(c4ccccc4oc3=O)O2)cc1OC (stereo not given)
TGI: > 100 µM

molecule: Nc1n[nH]c(CCc2nc(N)n[nH]2)n1
TGI: > 100 µM

// each listed molecule needs a value for TGI
1. CC(C)COC(=O)c1ccc2[nH]c(O)c(C=Nc3ccc(S(N)(=O)=O)cc3)c2c1
2. COC(=O)CCC(=O)NC1C2CC3CC(C2)CC1C3 (stereo not given)
3. O=S(=O)(NCCNc1nccc(-c2c(-c3ccc(F)cc3)nc3sccn23)n1)c1ccccc1

1. 4.84 µM
2. > 100 µM
3. > 100 µM

---

- Test system: UACC-62 melanoma
- method_description: NCI tumour cell line growth inhibition, 48 h
For each entry below, report its log10(TGI) value.
// stored as log10 of TGI expressed in µM

Worked cases, answers included:
compound: N#Cc1c(N2CCOCC2)[nH]c(=O)c(C(c2c(Cl)cccc2Cl)c2c(O)c(C#N)c(N3CCOCC3)[nH]c2=O)c1O
log10(TGI): 1.48

compound: COc1ccc2nc(NC(=O)c3cccnc3Nc3cc(OC)c(OC)c(OC)c3)sc2c1
log10(TGI): 1.39

compound: CSc1cccc(NC(=O)OC2CCCCCCCCCCC2)c1
log10(TGI): 1.72

compound: C=CCN1CN(c2ccccc2)C2(CCN(CCCC3(c4ccc(F)cc4)OCCO3)CC2)C1=O
log10(TGI): 1.54

compound: CC(CCCOC(c1ccccc1)(c1ccccc1)c1ccccc1)OC(=O)Nc1ccccc1 (centres undefined)
log10(TGI): 1.41

compound: O=C(O)/C=C/C(=O)N1C/C(=C\c2ccccc2)C(=O)/C(=C/c2ccccc2)C1
log10(TGI): 0.94

// each listed compound needs a value for log10(TGI)
1. CCN(CC)CCOc1ccc(C(=O)/C=C\c2ccc(Cl)cc2Cl)cc1
2. COC(=O)c1ccc(NCc2cc(O)ccc2O)cc1
3. CC1=C(C(=O)OC(C)C)C(c2ccccc2C(F)(F)F)C(C(=O)OC(CO[N+](=O)[O-])CO[N+](=O)[O-])=C(C)N1 (centres undefined)
4. CC(C)(C)OC(=O)N(CCCCNCc1ccc2ccccc2c1)CCCNCc1ccc2ccccc2c1

[0.67, 1.43, 1.30, 0.49]

---

- Tested on: UACC-257 melanoma
- method_description: NCI tumour cell line growth inhibition, 48 h
observation_type: TGI

Worked cases, answers included:
molecule: CCOC(=O)c1c(N2CCCC2)[nH]c(=O)c(C(c2cccs2)c2c(O)c(C(=O)OCC)c(N3CCCC3)[nH]c2=O)c1O
TGI: > 100 µM
//
molecule: O=C1c2ccccc2-c2c1c(-c1cccc(Br)c1)nc1ccc3ccccc3c21
TGI: > 100 µM
//
molecule: S=C1N=C(Cl)/C(=C\c2ccccc2)N1
TGI: > 100 µM

// each listed molecule needs a value for TGI
1. CC#CC(O)(C(=O)OC1CC2CCC(C1)N2C)C1CCCC1 (centres undefined)
2. CC[C@@H]1/C=C/C=C/C[C@H](C)[C@@H](O)[C@](C)(O)C(=O)[C@H](C)[C@@H](O)[C@H](C)C(=O)[C@H](C)[C@@H](O)[C@H](C)/C=C/C(=O)O[C@H]2[C@@H](C)[C@@H](CC1)O[C@@]1(CC[C@@H](C)[C@@H](CC(C)O)O1)[C@@H]2C (some centres undefined)
3. CCC1CN2CCC3(c4ccccc4)CC(C(=O)OC)=CC1C23 (centres undefined)
4. CN(C)CCN(C(=Nc1ccccc1)N1CCCC1)c1ccccc1
5. C[N+](C)=c1nc(N2CCc3ccccc3C2)ss1
6. O=C(CC1C(=O)Nc2ccccc2S1=O)Nc1ccc(Cl)cc1 (centres undefined)

["> 100 µM", "3.09 µM", "32 µM", "> 100 µM", "> 100 µM", "> 100 µM"]

// each listed molecule needs a value for TGI
1. Nc1nc(N)c2nc(CNc3ccc(C(=O)NC(CCCCNC(=O)c4ccccc4C(=O)O)C(=O)O)cc3)cnc2n1 (centres undefined)
2. Cc1cccc2c(N)c3ccccc3nc12
3. Cc1cc2c(cc1N)C(C)C1(CCC(=O)N2Cc2ccccc2)OCCO1 (centres undefined)
4. CC1(C)OC(=O)C=C([O-])O1.CC1(C)OC(=O)C=C([O-])O1.CC[O-].CC[O-].[Ti+4]
5. C[C@H]1C(=O)CC[C@]2(C)CCC(C(C)(C)O)CC12O (some centres undefined)

["> 100 µM", "3.63 µM", "> 100 µM", "> 100 µM", "> 100 µM"]

---

GI50 values recorded for HT29 colon

molecule: COc1ccc(C2=CC(c3ccc(OC)c(OC)c3)c3c(c4ccccc4oc3=O)O2)cc1OC (configuration not stated)
GI50: 0.822 µM
--
molecule: Cc1ccc(-c2nc(N3CCCNCC3)c3oc(-c4ccc(C)cc4)nc3n2)cc1
GI50: 1.49 µM
--
molecule: Cc1cccc2c(N)c3ccccc3nc12
GI50: 0.593 µM
--
molecule: CCN(CC)CCOc1ccc(C(=O)/C=C\c2ccc(Cl)cc2Cl)cc1
GI50: 2.06 µM
--
molecule: ClCc1ccc(Cn2cnc3c(Cl)nc(Cl)nc32)cc1
GI50: 2.9 µM

// each listed molecule needs a value for GI50
1. O=S(=O)(NCCNc1nccc(-c2c(-c3ccc(F)cc3)nc3sccn23)n1)c1ccccc1
2. CC(C)COC(=O)c1ccc2[nH]c(O)c(C=Nc3ccc(S(N)(=O)=O)cc3)c2c1

2.31 µM
1.63 µM

Taken from PubChem BioAssay (NCI).
